protocol: Human HepG2 cell viability assay in 384 well format
Assay type: toxicity, cell-based
Set-up: dose 125 nL, time 70.5 hour; concentration not given beside the values
test_context: HepG2 cells, read-out: Inhibition
property_measured: cytotoxicity at 70.5 h (%)
Provide the reading as a plain figure in %.

Q. Recorded cytotoxicity at 70.5 h of CCn1cc(-c2cncn2CCc2ccc3c(c2)OCCO3)cn1 , please.
A. 19.5

Q. Recorded cytotoxicity at 70.5 h of N#Cc1ccccc1N1CCCN(C(=O)CCc2cccs2)CC1 , please.
A. -8.79

Q. Recorded cytotoxicity at 70.5 h of CCN1CCC(CNC(=O)c2cc(Cl)c[nH]2)CC1 , please.
A. -8.09

Q. Recorded cytotoxicity at 70.5 h of CS(=O)(=O)N1CCc2nc(NC(=O)Nc3c(F)cccc3F)sc2C1 , please.
A. 0.946

Q. Recorded cytotoxicity at 70.5 h of CC1CCCN(S(=O)(=O)NCCCn2ccc3ccccc32)C1 (centres undefined) , please.
A. -9.54

Q. Recorded cytotoxicity at 70.5 h of COc1cccc(CN2CCCC(Nc3cccc(F)c3)C2)c1O (centres undefined) , please.
A. -4.92

Q. Recorded cytotoxicity at 70.5 h of CCn1cc2c(n1)CN(C(=O)c1ccncc1)CC2COCC1CC1 (centres undefined) , please.
A. -25.7

Q. Recorded cytotoxicity at 70.5 h of COc1ccc(CN2CCCC(N3CCCC3)C2)cc1Cn1cncn1 (centres undefined) , please.
A. 10.6

Q. Recorded cytotoxicity at 70.5 h of COCCC1(CNC(=O)NC2CCCN(C)C2)CC1 (centres undefined) , please.
A. 0.563

Q. Recorded cytotoxicity at 70.5 h of Cc1oc(-c2cccc(F)c2F)nc1CN(CCO)C(C)C , please.
A. -8.53

Q. Recorded cytotoxicity at 70.5 h of CN(CC(=O)N1CCCC(n2ccnc2)C1)c1cnccn1 (centres undefined) , please.
A. -1.54

Q. Recorded cytotoxicity at 70.5 h of CCn1c(C2CCCN(C(=O)c3ccc[nH]3)C2)nn(CCN(C)C)c1=O (centres undefined) , please.
A. 4.96

Q. Recorded cytotoxicity at 70.5 h of CCn1cnnc1CN(C)c1nccc(C2CCCC2)n1 , please.
A. -7.13

Q. Recorded cytotoxicity at 70.5 h of Cc1nn(C)c(C)c1NC(=O)CCn1ncc2ccc(Cl)cc21 , please.
A. -11.9

Q. Recorded cytotoxicity at 70.5 h of COCCN(Cc1ccoc1)S(=O)(=O)c1ccc(OC)c(Cl)c1 , please.
A. -20.8

Q. Recorded cytotoxicity at 70.5 h of CCn1nccc1CN(C)C(=O)Cn1nc(C)cc1C , please.
A. 16.1

Q. Recorded cytotoxicity at 70.5 h of CC(C)CC(O)C1CCN(Cc2cnc(-c3cccs3)nc2)CC1 (centres undefined) , please.
A. 37.1

Q. Recorded cytotoxicity at 70.5 h of Cc1nn(C)c(C)c1C1CCCN1Cc1nc2ccccc2n1C (centres undefined) , please.
A. 0.883

Q. Recorded cytotoxicity at 70.5 h of Cc1n[nH]c(C)c1C1COCCN1C(=O)Cc1cccc(F)c1 (centres undefined) , please.
A. -4.4

Q. Recorded cytotoxicity at 70.5 h of C1CC(c2noc(C3CC3)n2)CN(CCOCC2CC2)C1 (centres undefined) , please.
A. 7.19

Q. Recorded cytotoxicity at 70.5 h of Cc1cccc(C2(NCCCS(C)(=O)=O)CCCC2)c1 , please.
A. -6.96

Q. Recorded cytotoxicity at 70.5 h of CC1CCN(C(CNC(=O)CCn2cccn2)c2cccs2)CC1 (centres undefined) , please.
A. -1.29

Q. Recorded cytotoxicity at 70.5 h of C[C@H]1C[C@@H]2CCN(Cc3ccco3)C[C@H]2O1 , please.
A. -7.2

Q. Recorded cytotoxicity at 70.5 h of Cc1ccc(-n2cccn2)cc1S(=O)(=O)N1C[C@@H]2CC[C@H](C1)N(C)C2 , please.
A. -1.91
